System: rodent lifetime carcinogenesis bioassay, tumor incidence TD50
Assay info: carcinogenic potency in animals, long-term in vivo studies, CPDB compilation (AID 1745844)
Condition label: rat; strain F344/DuCrj; females; in feed; site: liver; lesion: hepatocellular carcinoma; dosed 104 weeks; study length 104 weeks
Quantity name: TD50
A complete answer gives the number followed by the unit.

Query string: Observed TD50 on rodent lifetime carcinogenesis bioassay, tumor incidence TD50 for Oc1ccc(O)cc1 , please.
Result string: 8080 mg/kg/day

###

System: rodent lifetime carcinogenesis bioassay, tumor incidence TD50
Assay info: carcinogenic potency in animals, long-term in vivo studies, CPDB compilation (AID 1745844)
Condition label: hamster; strain Syrian Golden; males; by gavage; site: nasal mucosa; lesion: malignant tumor; dosed 61 weeks; study length 106 weeks
Quantity name: TD50
A complete answer gives the number followed by the unit.

Query string: So what does the record say about TD50 for CN(C)CCN(C)N=O ?
Result string: 38.7 mg/kg/day

###

System: rodent lifetime carcinogenesis bioassay, tumor incidence TD50
Assay info: carcinogenic potency in animals, long-term in vivo studies, CPDB compilation (AID 1745844)
Condition label: rat; strain Fischer 344; males; by gavage; site: spleen; lesion: osteosarcoma; dosed 103 weeks; study length 105 weeks
Quantity name: TD50 (mg/kg/day)
Write the value in mg/kg/day as a bare number.

Query string: So what does the record say about TD50 for Nc1ccc(Cl)cc1 ?
Result string: 15.5

###

Tested on: rodent lifetime carcinogenesis bioassay, tumor incidence TD50
Assay info: carcinogenic potency in animals, long-term in vivo studies, CPDB compilation (AID 1745844)
Condition label: rat; strain Fischer 344; males; by gavage; site: liver; lesion: hepatocellular adenoma + hepatoblastoma + hepatocellular carcinoma; dosed 94 weeks; study length 104 weeks
Quantity name: TD50

Query string: So what does the record say about TD50 for ClCC(Cl)CCl ?
Result string: 23 mg/kg/day

###

Test system: rodent lifetime carcinogenesis bioassay, tumor incidence TD50
Assay info: carcinogenic potency in animals, long-term in vivo studies, CPDB compilation (AID 1745844)
Condition label: rat; strain Fischer 344; females; by gavage; site: all sites; lesion: mononuclear-cell leukemia; dosed 102 weeks; study length 104 weeks
Quantity name: TD50

Query string: Observed TD50 on rodent lifetime carcinogenesis bioassay, tumor incidence TD50 for C=C1C/C(=C/C)C(=O)O[C@@H]2CCN3CC=C(COC(=O)[C@@]1(O)CO)[C@H]23 , please.
Result string: 0.293 mg/kg/day

###

System: rodent lifetime carcinogenesis bioassay, tumor incidence TD50
Assay info: carcinogenic potency in animals, long-term in vivo studies, CPDB compilation (AID 1745844)
Condition label: rat; strain F344/DuCrj; females; in feed; site: urinary bladder; lesion: transitional-cell carcinoma; dosed 104 weeks; study length 104 weeks
Quantity name: TD50

Query string: So what does the record say about TD50 for O=c1cc[nH]c(=O)[nH]1 ?
Result string: 5640 mg/kg/day

###

Tested on: rodent lifetime carcinogenesis bioassay, tumor incidence TD50
Assay info: carcinogenic potency in animals, long-term in vivo studies, CPDB compilation (AID 1745844)
Condition label: mouse; strain B6C3F1; males; by gavage; site: lung; lesion: alveolar/bronchiolar adenoma; dosed 104 weeks; study length 104 weeks
Quantity name: TD50 (mg/kg/day)
Write the value in mg/kg/day as a bare number.

Query string: So what does the record say about TD50 for Clc1cc2c(cc1Cl)Oc1cc(Cl)c(Cl)cc1O2 ?
Result string: 0.000219

###

System: rodent lifetime carcinogenesis bioassay, tumor incidence TD50
Assay info: carcinogenic potency in animals, long-term in vivo studies, CPDB compilation (AID 1745844)
Condition label: rat; strain Fischer 344; males; in feed; site: pancreatic islets; lesion: islet-cell adenoma; dosed 108 weeks; study length 108 weeks
Active and inactive are the calls of the source. How the calls were made is not given here.
Quantity name: TD50

Query string: So what does the record say about TD50 for C[N+](C)(C)CCCl ?
Result string: 458 mg/kg/day (inactive)

###

Give measured TD50 for each item. Keep answers brief.
System: rodent lifetime carcinogenesis bioassay, tumor incidence TD50
Assay info: carcinogenic potency in animals, long-term in vivo studies, CPDB compilation (AID 1745844)
Condition label: mouse; strain ICR/Jcl; females; in feed; site: lung; lesion: one or several types; types not named; dosed 102 weeks; study length 106 weeks
Active and inactive are the calls of the source. No rule for the calls is given here.

Query string: So what does the record say about TD50 for CC(C)COC(=O)c1ccc(O)cc1 ?
Result string: 37200 mg/kg/day (inactive)

Query string: Same question, CCCCOC(=O)c1ccc(O)cc1 this time
Result string: 5100 mg/kg/day (inactive)

###

Tested on: rodent lifetime carcinogenesis bioassay, tumor incidence TD50
Assay info: carcinogenic potency in animals, long-term in vivo studies, CPDB compilation (AID 1745844)
Condition label: mouse; strain B6C3F1; males; in feed; site: all sites; lesion: lymphoma, histiocytic type; dosed 103 weeks; study length 105 weeks
Quantity name: TD50
A complete answer gives the number followed by the unit.

Query string: Observed TD50 on rodent lifetime carcinogenesis bioassay, tumor incidence TD50 for CCCOC(=O)c1cc(O)c(O)c(O)c1 , please.
Result string: 15100 mg/kg/day

###

Test system: rodent lifetime carcinogenesis bioassay, tumor incidence TD50
Assay info: carcinogenic potency in animals, long-term in vivo studies, CPDB compilation (AID 1745844)
Condition label: mouse; strain B6C3F1; males; inhaled; site: all sites; lesion: histiocytic sarcoma + malignant lymphoma, mixed type + malignant lymphoma, lymphocytic type + malignant lymphoma; dosed 26 weeks; study length 104 weeks
Quantity name: TD50 (mg/kg/day)
Write the value in mg/kg/day as a bare number.

Query string: So what does the record say about TD50 for C=CC=C ?
Result string: 28.8

###

Tested on: rodent lifetime carcinogenesis bioassay, tumor incidence TD50
Assay info: carcinogenic potency in animals, long-term in vivo studies, CPDB compilation (AID 1745844)
Condition label: rat; strain Fischer 344; males; in drinking water; site: esophagus; lesion: several types; types named in the paper; dosed 25 weeks; study length 115 weeks
Quantity name: TD50

Query string: So what does the record say about TD50 for O=NN1CCCCCCC1 ?
Result string: 0.118 mg/kg/day

###

Test system: rodent lifetime carcinogenesis bioassay, tumor incidence TD50
Assay info: carcinogenic potency in animals, long-term in vivo studies, CPDB compilation (AID 1745844)
Condition label: rat; strain Fischer 344; males; in drinking water; site: nasal cavity; lesion: adenocarcinoma; dosed 48 weeks; study length 95 weeks
Quantity name: TD50

Query string: So what does the record say about TD50 for O=NN(CCO)CCO ?
Result string: 15.5 mg/kg/day

###

Give measured TD50 for each item. Keep answers brief.
Tested on: rodent lifetime carcinogenesis bioassay, tumor incidence TD50
Assay info: carcinogenic potency in animals, long-term in vivo studies, CPDB compilation (AID 1745844)
Condition label: mouse; strain B6C3F1; females; in feed; site: lung; lesion: alveolar/bronchiolar carcinoma; dosed 104 weeks; study length 104 weeks
Activity calls are given as the source filed them. No rule for the calls is given here.

Query string: Observed TD50 on rodent lifetime carcinogenesis bioassay, tumor incidence TD50 for CC1=C(C(=O)OCCN(Cc2ccccc2)c2ccccc2)C(c2cccc([N+](=O)[O-])c2)C(P2(=O)OCC(C)(C)CO2)=C(C)N1 (configuration not stated) , please.
Result string: 12300 mg/kg/day (inactive)

Query string: Same question, Cc1cc(C)nc(NS(=O)(=O)c2ccc(N)cc2)n1 this time
Result string: 12700 mg/kg/day

###

Tested on: rodent lifetime carcinogenesis bioassay, tumor incidence TD50
Assay info: carcinogenic potency in animals, long-term in vivo studies, CPDB compilation (AID 1745844)
Condition label: rat; strain Fischer 344; males; by gavage; site: kidney + Zymbal's gland; lesion: tubular-cell adenoma + tubular-cell adenocarcinoma + carcinoma, NOS + squamous-cell carcinoma; dosed 103 weeks; study length 105 weeks
Quantity name: TD50

Query string: So what does the record say about TD50 for COc1c2occc2cc2ccc(=O)oc12 ?
Result string: 27.3 mg/kg/day

###

Test system: rodent lifetime carcinogenesis bioassay, tumor incidence TD50
Assay info: carcinogenic potency in animals, long-term in vivo studies, CPDB compilation (AID 1745844)
Condition label: mouse; strain B6C3F1; males; in feed; site: any site (literature study); lesion: several types; types named in the paper; dosed 78 weeks; study length 103 weeks
Active and inactive are the calls of the source. No rule for the calls is given here.
Quantity name: TD50

Query string: So what does the record say about TD50 for COc1cc(-c2ccc(N=C=O)c(OC)c2)ccc1N=C=O ?
Result string: 24000 mg/kg/day (inactive)

###

Test system: rodent lifetime carcinogenesis bioassay, tumor incidence TD50
Assay info: carcinogenic potency in animals, long-term in vivo studies, CPDB compilation (AID 1745844)
Condition label: mouse; strain B6C3F1; females; inhaled; site: forestomach; lesion: squamous-cell carcinoma; dosed 83 weeks; study length 104 weeks
Quantity name: TD50 (mg/kg/day)
Write the value in mg/kg/day as a bare number.

Query string: So what does the record say about TD50 for C=CC=C ?
Result string: 257

###

Tested on: rodent lifetime carcinogenesis bioassay, tumor incidence TD50
Assay info: carcinogenic potency in animals, long-term in vivo studies, CPDB compilation (AID 1745844)
Condition label: rat; strain MRC-Wistar; females; in drinking water; site: liver; lesion: several types; types named in the paper; dosed 41 weeks; study length 70 weeks
Quantity name: TD50

Query string: So what does the record say about TD50 for O=NN1CCC(=O)NC1=O ?
Result string: 0.104 mg/kg/day
